# Selectivity SC/CM values compiled below
# system-name: T1, ErbB4 (Rattus norvegicus, UniProt Q62956)
# T1 construct: forming the ErbB2/ErbB4 complex in cardiomyocytes and the ErbB2/ErbB3 complex in Schwann cells; endogenous in cells; host or cells: primary neonatal rat cardiomyocytes (Sprague Dawley pups, 0 to 4 days old)
# T1 sequence (Q62956 26-1308): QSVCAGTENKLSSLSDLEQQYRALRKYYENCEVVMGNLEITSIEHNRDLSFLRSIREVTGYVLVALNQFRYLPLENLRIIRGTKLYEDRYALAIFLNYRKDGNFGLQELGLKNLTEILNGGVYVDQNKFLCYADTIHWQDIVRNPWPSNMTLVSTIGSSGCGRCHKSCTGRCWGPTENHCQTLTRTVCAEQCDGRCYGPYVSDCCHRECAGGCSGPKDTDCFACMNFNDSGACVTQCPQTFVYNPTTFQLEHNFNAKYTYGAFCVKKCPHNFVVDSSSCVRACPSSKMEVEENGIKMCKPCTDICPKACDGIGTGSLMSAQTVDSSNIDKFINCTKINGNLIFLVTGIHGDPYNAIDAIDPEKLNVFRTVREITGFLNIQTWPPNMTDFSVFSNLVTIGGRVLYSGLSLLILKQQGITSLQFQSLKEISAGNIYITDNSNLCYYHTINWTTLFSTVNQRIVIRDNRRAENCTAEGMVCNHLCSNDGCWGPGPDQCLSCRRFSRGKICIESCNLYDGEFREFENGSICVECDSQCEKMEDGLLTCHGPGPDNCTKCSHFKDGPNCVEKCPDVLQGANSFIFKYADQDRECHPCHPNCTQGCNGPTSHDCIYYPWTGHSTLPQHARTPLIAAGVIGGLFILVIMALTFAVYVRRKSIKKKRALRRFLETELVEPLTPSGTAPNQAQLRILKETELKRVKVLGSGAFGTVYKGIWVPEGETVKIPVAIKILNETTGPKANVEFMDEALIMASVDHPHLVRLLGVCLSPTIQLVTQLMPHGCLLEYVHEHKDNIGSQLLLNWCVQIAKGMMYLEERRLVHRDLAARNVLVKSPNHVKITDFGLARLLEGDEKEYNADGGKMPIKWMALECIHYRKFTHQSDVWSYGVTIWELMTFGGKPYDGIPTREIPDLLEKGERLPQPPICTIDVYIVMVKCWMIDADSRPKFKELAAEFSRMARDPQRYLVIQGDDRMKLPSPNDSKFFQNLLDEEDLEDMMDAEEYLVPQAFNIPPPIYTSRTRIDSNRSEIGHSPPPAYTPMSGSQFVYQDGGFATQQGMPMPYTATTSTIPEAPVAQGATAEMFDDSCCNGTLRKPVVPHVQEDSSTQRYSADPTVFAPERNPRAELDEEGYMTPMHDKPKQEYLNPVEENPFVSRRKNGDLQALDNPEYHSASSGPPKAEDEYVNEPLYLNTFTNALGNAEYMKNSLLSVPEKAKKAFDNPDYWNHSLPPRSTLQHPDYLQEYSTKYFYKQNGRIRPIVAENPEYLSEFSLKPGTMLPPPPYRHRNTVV
# T1 sequence (P06494 23-1257 partner): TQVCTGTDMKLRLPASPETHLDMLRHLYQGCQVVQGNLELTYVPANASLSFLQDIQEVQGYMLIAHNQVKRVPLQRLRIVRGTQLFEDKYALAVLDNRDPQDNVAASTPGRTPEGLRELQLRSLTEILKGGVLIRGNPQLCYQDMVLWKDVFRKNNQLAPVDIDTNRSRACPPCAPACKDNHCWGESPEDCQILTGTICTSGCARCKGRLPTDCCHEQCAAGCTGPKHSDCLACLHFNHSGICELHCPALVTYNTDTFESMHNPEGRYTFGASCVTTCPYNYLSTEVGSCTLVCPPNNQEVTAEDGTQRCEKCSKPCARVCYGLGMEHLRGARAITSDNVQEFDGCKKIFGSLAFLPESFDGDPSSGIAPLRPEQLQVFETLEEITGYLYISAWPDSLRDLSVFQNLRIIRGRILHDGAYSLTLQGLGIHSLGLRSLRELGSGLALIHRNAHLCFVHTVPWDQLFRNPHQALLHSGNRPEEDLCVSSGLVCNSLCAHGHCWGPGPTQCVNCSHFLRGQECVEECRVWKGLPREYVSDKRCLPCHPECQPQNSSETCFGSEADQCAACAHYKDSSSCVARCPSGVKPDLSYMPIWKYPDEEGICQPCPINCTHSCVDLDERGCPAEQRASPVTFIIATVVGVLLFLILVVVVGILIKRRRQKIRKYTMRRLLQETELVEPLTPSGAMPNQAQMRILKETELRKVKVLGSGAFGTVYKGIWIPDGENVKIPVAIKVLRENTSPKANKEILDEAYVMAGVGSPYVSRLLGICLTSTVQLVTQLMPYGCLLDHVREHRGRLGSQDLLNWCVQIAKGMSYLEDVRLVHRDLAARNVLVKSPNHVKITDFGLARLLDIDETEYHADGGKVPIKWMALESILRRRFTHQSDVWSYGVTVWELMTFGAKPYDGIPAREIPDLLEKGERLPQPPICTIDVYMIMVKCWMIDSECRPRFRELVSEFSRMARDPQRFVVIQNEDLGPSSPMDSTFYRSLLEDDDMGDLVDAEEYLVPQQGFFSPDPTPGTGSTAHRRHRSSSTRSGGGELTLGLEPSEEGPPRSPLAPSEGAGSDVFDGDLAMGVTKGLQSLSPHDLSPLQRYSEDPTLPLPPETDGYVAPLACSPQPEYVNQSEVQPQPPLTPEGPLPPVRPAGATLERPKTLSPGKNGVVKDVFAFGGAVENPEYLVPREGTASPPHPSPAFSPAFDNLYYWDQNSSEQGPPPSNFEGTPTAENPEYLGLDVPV
# protocol-details: In vitro phosphorylation of Akt in neonatal rat cardiomyocytes
# Format: cell-based
# assay-context: ratio of EC50s Schwann cells/cardiomyocytes
# Procedure: In Vitro Phosphorylation of Akt in Neonatal Rat Cardiomyocytes and Rat Schwann Cells by Neuregulin Variants Specificity of neuregulin variants towards cardiomyocytes (ErbB4) versus Schwann cells (ErbB3) was tested by measuring Akt activity generated by formation of the ErbB2/ErbB4 and ErbB2/ErbB3 complexes. […]

{"molecule": "huNRG1(S177-F229)(NRGE1C) 6xHis: 6xHis-tagged NRG1 variant SEQ ID NO:117 (protein, 6xHis tag; huNRG1(S177-F229)(NRGE1C) 6xHis) SHLVKCGEKHKSFCVNGGECFMIEGPSNPSRYLCKCPNEFTGDRCQEDFMASFGGGGEGGGGAGGGGHHHHHH", "reported": ">10000"}

# ---- query molecule ----
get_value(item= huNRG1(S177-F229)(NRGE1C) (D48T_F49Q_M50I) 6xHis: 6xHis-tagged NRG1 variant SEQ ID NO:118 (protein, 6xHis tag; huNRG1(S177-F229)(NRGE1C) (D48T_F49Q_M50I) 6xHis) SHLVKCGEKHKSFCVNGGECFMIEGPSNPSRYLCKCPNEFTGDRCQETQIASFGGGGEGGGGAGGGGHHHHHH , readout=Selectivity SC/CM) returns >10000
